assay: solvent given as SMILES; conditions: in CC(C)O
outcome measure: absorption maximum
Please don't drop the unit; write it after the number.

Cc1cc(O)c(C(C)C)cc1/N=C/c1ccc(O)cc1 :: 340 nm
Cc1c2ccncc2c(C)c2c1[nH]c1ccccc12 :: 294.5 nm
COC(=O)C(Cc1ccc2oc(-c3ccc(N(C)C)cc3)nc2c1)NC(=O)OC(C)(C)C (centres undefined) :: 343.9 nm
C(=C\c1ccnc2ccccc12)/c1ccc(/C=C/c2ccnc3ccccc23)cc1 :: 374 nm
O=[N+]([O-])c1ccc(F)cc1C1CC(c2cccc3ccccc23)=NN1c1ccccc1 (centres undefined) :: 370 nm
O=c1ccc2cc3c(cc2o1)OCC3 :: 333 nm

// sample "O=C1c2ccccc2-c2ccc(Nc3nc(Cl)nc(Cl)n3)c3cccc1c23" , its absorption maximum was 411.86 nm

// sample "CN(C)c1ccc2cc3c(cc2c1)OCCN=C3" , its absorption maximum was 362 nm

// sample "CCCCCCCCCCCCCCCCN(CCCCCCCCCCCCCCCC)c1ccc(/C=C/c2cc[n+](Cc3cc(C[n+]4ccc(/C=C/c5ccc(N(CCCCCCCCCCCCCCCC)CCCCCCCCCCCCCCCC)cc5)cc4)cc(C[n+]4ccc(/C=C/c5ccc(N(CCCCCCCCCCCCCCCC)CCCCCCCCCCCCCCCC)cc5)cc4)c3)cc2)cc1" , its absorption maximum was 506 nm

====

assay: solvent given as SMILES; details: in ClCCl
outcome measure: absorption maximum (nm)
API: value field is a number in nm; no unit string.

// sample "CCN(CC)c1ccc(/C=N/CC/N=C/c2ccc(N(CC)CC)cc2O)c(O)c1" , its absorption maximum was 344

// sample "O=C(O)CC[N+]1=c2cc3c(cc2CCC1)=Cc1c(c2cc4c5c(c2oc1=O)CCCN5CCC4)O3" , its absorption maximum was 637

// sample "Fc1ccccc1N1c2c(sc3ccccc23)Sc2sc3ccccc3c21" , its absorption maximum was 353

// sample "COc1cc(OC)cc(C2=C3C(C)=C(I)C(/C=C/c4ccsc4)=[N+]3[B-](F)(F)n3c(/C=C/c4ccsc4)c(I)c(C)c32)c1" , its absorption maximum was 670

// sample "COc1c2ccccc2c(OC)c2c1c1ccc(C(F)(F)F)cc1n2C" , its absorption maximum was 419

====

Recorded measurements of absorption maximum, one per entry
assay: solvent given as SMILES; conditions: in ClCCl
API: value field is a number in nm; no unit string.

Known absorption maximum results, listed for orientation:
CC(C)[Si](C#Cc1c2ccccc2c(C#C[Si](C(C)C)(C(C)C)C(C)C)c2nc3ccccc3nc12)(C(C)C)C(C)C :: 570
CCN(CC)c1ccc2cc3c([o+]c2c1)/C(=C/Nc1ccccc1)CCC3 :: 615
C=CCN(CC=C)c1ccc(-c2cc(-c3ccc(N(CC=C)CC=C)cc3)cc(-c3ccc(N(CC=C)CC=C)cc3)c2)cc1 :: 315.85
COc1cccc(C2=CC3=C(c4c(C)cc(C)cc4C)c4cc(-c5cccc(OC)c5)c(-c5cccc(OC)c5)n4[B-](F)(F)[N+]3=C2c2cccc(OC)c2)c1 :: 588
CCCCCCCCOc1cc(/C=C/c2cc(OCCCCCCCC)c(/C=C/c3cc(OCCCCCCCC)c(Br)cc3OCCCCCCCC)cc2OCCCCCCCC)c(OCCCCCCCC)cc1Br :: 410
Cc1ccc2nc3cc4c(cc3c(-c3ccccc3)c2c1)[Si](C)(C)O[Si]4(C)C :: 370
Cc1cc(O)c(C(C)C)cc1/N=C/c1ccc(C(F)(F)F)cc1 :: 343

Would you kindly look at the next entry?
// sample "N#Cc1ccc(N(c2ccc(C#N)cc2)c2ccc3c4cccc5c(N(c6ccc(C#N)cc6)c6ccc(C#N)cc6)ccc(c6cccc2c63)c54)cc1" , its absorption maximum was 450
